# ASSAY METHOD TEXT: qHTS assay to identify small molecule agonists of the AP-1 signaling pathway - cell viability counter screen (AID 1159525); also: nearly all actives have a fitted effect of over 55% in size
# MEASUREMENT CONDITIONS: ME-180 (cervical carcinoma) AP-1-bla cells viability, ATP luminescence, 5 h; series mostly up to 76.8 µM
Records with an inconclusive call do not appear. Calls of active or inactive are those of the source. Calls follow the shape of the full dose curve.
Respond only with the outcome that fits, drawn from Yes = active, No = inactive

MOLECULE | LABEL CLASS
ClC(Cl)=C(Cl)Cl | No
[Cl][Sn]([c]1ccccc1)([c]1ccccc1)[c]1ccccc1 | Yes
COc1ccc(/C(=C/C(=O)N2CCOCC2)c2ccc(Cl)cc2)cc1OC | No
O=C(O)COc1nc(Cl)c(Cl)cc1Cl | No
CC[C@H](C)[C@H]1O[C@]2(C=C[C@@H]1C)C[C@@H]1C[C@@H](C/C=C(\C)[C@@H](O[C@H]3C[C@H](OC)[C@@H](O[C@H]4C[C@H](OC)[C@@H](O)[C@H](C)O4)[C@H](C)O3)[C@@H](C)/C=C/C=C3\CO[C@@H]4[C@H](O)C(C)=C[C@@H](C(=O)O1)[C@]34O)O2 | Yes
CCN(CC)C(=S)[S-].CCN(CC)C(=S)[S-].[Zn+2] | Yes

Status in this test for `COc1cccc(C(=O)CCN[C@@H](C)[C@H](O)c2ccccc2)c1` ?
No

Now try `Oc1c(Cl)c(Cl)cc(Cl)c1Cl` .
No

Now try `COP(N)(=S)OC` .
No

Now try `N#C/C=C/c1ccccc1` .
No

Now try `Clc1ccc(C(Cl)(Cl)Cl)c(Cl)c1` .
No

Now try `CCOC(=O)C1(c2ccccc2)CCN(CCC(C#N)(c2ccccc2)c2ccccc2)CC1` .
No

Now try `C=CCOC(N)=O` .
No

Now try CCC(C)c1cc([N+](=O)[O-])cc([N+](=O)[O-])c1OC(=O)C=C(C)C (stereo not given) .
No

Now try `Fc1cccc(Cl)c1CCl` .
No

Now try CC1CCC(C(C)C)C(OC(=O)c2ccccc2N)C1 (stereo not given) .
Yes

Now try `CC(C)OC(=S)S` .
No
